measure_name: melting point

• COn1c(=S)n(C)c(=O)c2ccccc21 = 184 °C
• CCCC[C@H](NC(=O)[C@H](CC(C)C)NC(=O)c1cc(F)cc(F)c1)C(=O)CSCc1ccco1 = 125 to 126 °C
• N#CCC(=NC#N)N1CCCC1 = 45 °C
• CC(C)(C)c1cc(CCc2ccccc2NC(=O)NCCc2ccccn2)cc(C(C)(C)C)c1O = 180 °C
• CCOC(=O)CCCCc1oc(=O)[nH]c1-c1ccc(Cl)cc1 = 143 to 144 °C
• N#CC(C#N)=Cc1ccc(C=O)cc1 = 142 °C
• CC(C)c1ccc(C(=O)C2=C(O)C(=O)N(c3ccc(O)nn3)C2c2ccc(OC(F)(F)F)cc2)cc1 (stereo not drawn) = 255 °C
• CC(C)(C)OC(=O)C1CCCN(CO)c2c1cc(OCc1ccccc1)c1ccccc21 (stereo not drawn) = 108 to 110 °C
• Oc1ccc2c(c1)OCC(c1cccc(C(F)(F)F)c1)C2c1ccc(OCCN2CCCCC2)cc1 (stereo not drawn) = 118 to 119 °C
• c1ccc2c(c1)C[C@@H]1CCc3ccccc3[C@@H]1O2 (relative stereo) = 71 to 72 °C
• COc1ccc(Cl)c(Oc2c(NS(=O)(=O)c3ccc4c(c3)OCO4)ncnc2OCCO)c1 = 148 to 150 °C
• Cc1onc(-c2c(Cl)cccc2Cl)c1CSc1ccc(OCC(=O)O)c2c1CCC2 = 151 to 152 °C
• CCCCC1=NC2(CCCC2)C(=O)N1Cc1ccc(-c2ccccc2S(=O)(=O)NC(=O)c2onc(C)c2C)c(CN2CCC(C)(C)C2=O)c1 = 104 to 110 °C
• Cc1cccc(NC(=O)NC2N=C(C3CCCCC3)c3cccc(C)c3N(CC(=O)N3CCCCCCC3)C2=O)c1 (stereo not drawn) = 154 to 155 °C
• Cc1cn2ccccc2c1S(=O)(=O)c1ccc(O)cc1 = 177 °C
• COc1ccc(S(=O)(=O)Nc2ccccc2NC(=O)c2ccccc2)cc1OC = 183 to 184 °C
• Cc1noc2cc3c(cc12)C1(CO3)C(=O)N(Cc2ccc(-c3cc(N)n[nH]3)cc2)c2ccccc21 (stereo not drawn) = 191 to 195 °C
• FC(F)(F)c1ccc(CN2CC3(COc4ccc(-c5cccnc5)cc43)c3ccccc32)o1 (stereo not drawn) = 98 to 100 °C

----------
The compounds listed here are annotated with their melting point.
measure_name: melting point

* Cc1ccc(OCc2nc3nccnc3c(=O)[nH]2)cc1 | 232 to 233 °C
* COc1cc(Nc2nccc(-c3ccc(N4CC[C@@H](N(C)C)C4)nc3)n2)cc(OC)c1OC | 150 to 151 °C
* Cc1nc(C)c(N2CCCn3c2nc2c(Cl)ccc(C(OC(F)F)C(F)(F)F)c23)c(C)n1 (centres undefined) | 168 to 170 °C
* COc1ccc(S(=O)(=O)N2C(=O)[C@@](c3ccccc3OC)(N3C[C@H](OC(=O)C4CCCCC4)C[C@H]3C(=O)N(C)C)c3cc(Cl)ccc32)c(OC)c1 | 197 to 198 °C

----------
measure_name: melting point

* COc1cc(CCC2=NNC(=O)CC2)cc(OC)c1OC | 116 to 117 °C
* Cc1ccc(C(CCCOC(=O)Nc2ccccc2)=NNC(N)=S)cc1 | 170 to 173 °C
* CCc1c(C)[nH]c2cc(OCCN(C)C)c(Cl)cc2c1=O | 227 to 230 °C
* CCOC(=O)c1c(COC(C)=O)cccc1S(=O)(=O)NC(C)(C)C | 81 to 82 °C
* CCOCc1nc2c(N)nc3ccccc3c2n1NCCCNC(C)=O | 178 to 181 °C
* CCOC(CNC(=N)NN1CCc2cc(Cl)ccc21)OCC | 163 to 165 °C
